Cited source: paper PMC6982223

- target_system: Human recombinant poly(ADP-ribose)-polymerase 1 (Homo sapiens)
- Construct: made in house
- Sequence (P09874 whole entry): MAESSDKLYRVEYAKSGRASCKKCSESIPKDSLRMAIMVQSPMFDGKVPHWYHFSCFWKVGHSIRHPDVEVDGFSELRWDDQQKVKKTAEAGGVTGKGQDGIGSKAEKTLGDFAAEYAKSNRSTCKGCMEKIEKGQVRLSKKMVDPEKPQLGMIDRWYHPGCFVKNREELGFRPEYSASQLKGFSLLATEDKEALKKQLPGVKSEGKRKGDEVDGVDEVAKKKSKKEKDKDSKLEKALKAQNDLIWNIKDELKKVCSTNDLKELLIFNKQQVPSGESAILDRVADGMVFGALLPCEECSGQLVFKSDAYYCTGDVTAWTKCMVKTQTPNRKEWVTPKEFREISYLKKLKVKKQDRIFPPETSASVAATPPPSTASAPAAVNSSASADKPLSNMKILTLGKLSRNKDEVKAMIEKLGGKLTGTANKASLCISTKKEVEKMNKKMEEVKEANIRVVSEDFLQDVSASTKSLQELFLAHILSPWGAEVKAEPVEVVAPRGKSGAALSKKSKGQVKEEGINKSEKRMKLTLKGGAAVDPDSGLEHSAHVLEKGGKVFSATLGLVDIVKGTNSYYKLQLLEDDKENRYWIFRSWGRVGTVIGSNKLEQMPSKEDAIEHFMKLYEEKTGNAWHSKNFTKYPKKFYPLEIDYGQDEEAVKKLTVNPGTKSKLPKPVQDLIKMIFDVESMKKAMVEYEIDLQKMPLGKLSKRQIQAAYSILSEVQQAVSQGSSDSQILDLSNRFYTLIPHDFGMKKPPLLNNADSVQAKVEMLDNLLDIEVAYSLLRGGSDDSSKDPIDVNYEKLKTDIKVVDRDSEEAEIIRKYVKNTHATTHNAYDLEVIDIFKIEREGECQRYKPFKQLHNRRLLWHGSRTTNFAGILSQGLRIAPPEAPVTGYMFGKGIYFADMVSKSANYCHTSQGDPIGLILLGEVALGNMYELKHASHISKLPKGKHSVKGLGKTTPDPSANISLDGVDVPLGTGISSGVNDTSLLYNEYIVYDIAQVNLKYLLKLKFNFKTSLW
- test: autopoly(ADP-ribosyl)ation of PARP-1, [32P]NAD+ incorporation
- Assay type: biochemical
- settings: autopoly(ADP-ribosyl)ation, 0.3 mM NAD+
readout_kind: pIC50
Please treat pIC50 as minus the base-10 logarithm of the molar concentration.

# compound, target_system, pIC50
rows = [
    ("Cc1cn(C2CNCC(CNP(=O)(O)OP(=O)(O)OCC3OC(n4cnc5c(N)ncnc54)C(O)C3O)O2)c(=O)[nH]c1=O (centres unmarked) [Compound 10T]", "Human recombinant poly(ADP-ribose)-polymerase 1 (Homo sapiens)", 3.66),
    ("Cc1cn([C@@H]2O[C@H](CO)[C@@H](O)[C@H]2O)c(=O)[nH]c1=O [rThd, reference compound]", "Human recombinant poly(ADP-ribose)-polymerase 1 (Homo sapiens)", 3.56),
    ("O=c1[nH]c(=O)n([C@@H]2O[C@H](CO)[C@@H](O)[C@H]2O)cc1Br [Compound 5-Br-Urd, 5-Br-uridine, reference compound]", "Human recombinant poly(ADP-ribose)-polymerase 1 (Homo sapiens)", 3.61),
    ("Nc1ncnc2c1ncn2C1OC(COP(=O)(O)OP(=O)(O)OCC2CNCC(n3cc(I)c(=O)[nH]c3=O)O2)C(O)C1O (centres unmarked)", "Human recombinant poly(ADP-ribose)-polymerase 1 (Homo sapiens)", 3.59),
    ("Nc1ncnc2c1ncn2C1CNCC(CNP(=O)(O)OP(=O)(O)OCC2OC(n3cnc4c(N)ncnc43)C(O)C2O)O1 (centres unmarked) [Compound 10A]", "Human recombinant poly(ADP-ribose)-polymerase 1 (Homo sapiens)", 3.45),
]

Consider the compound O=c1[nH]c(=O)n([C@H]2CNC[C@@H](CO)O2)cc1I [Compound 11IU] and give its measured pIC50.
4.28

I'd like to know its pIC50. The compound in question is Cc1cn([C@H]2CNC[C@@H](CO)O2)c(=O)[nH]c1=O [Compound 11T]
3.83
